Molecular target: Tumour suppressor p53/oncoprotein Mdm2 (Homo sapiens)
Sequence (P04637 whole entry): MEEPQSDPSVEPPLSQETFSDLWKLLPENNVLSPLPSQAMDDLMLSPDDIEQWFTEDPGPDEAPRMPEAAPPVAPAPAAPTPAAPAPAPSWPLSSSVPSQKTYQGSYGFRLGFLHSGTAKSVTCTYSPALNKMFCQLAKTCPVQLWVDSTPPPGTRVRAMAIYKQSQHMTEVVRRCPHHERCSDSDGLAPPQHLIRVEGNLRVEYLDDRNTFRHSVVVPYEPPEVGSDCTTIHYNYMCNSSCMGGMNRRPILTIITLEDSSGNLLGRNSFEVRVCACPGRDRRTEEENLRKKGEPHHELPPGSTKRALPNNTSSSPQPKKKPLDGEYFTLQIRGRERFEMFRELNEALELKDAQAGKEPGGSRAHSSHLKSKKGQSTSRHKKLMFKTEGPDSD
Sequence (Q00987 whole entry): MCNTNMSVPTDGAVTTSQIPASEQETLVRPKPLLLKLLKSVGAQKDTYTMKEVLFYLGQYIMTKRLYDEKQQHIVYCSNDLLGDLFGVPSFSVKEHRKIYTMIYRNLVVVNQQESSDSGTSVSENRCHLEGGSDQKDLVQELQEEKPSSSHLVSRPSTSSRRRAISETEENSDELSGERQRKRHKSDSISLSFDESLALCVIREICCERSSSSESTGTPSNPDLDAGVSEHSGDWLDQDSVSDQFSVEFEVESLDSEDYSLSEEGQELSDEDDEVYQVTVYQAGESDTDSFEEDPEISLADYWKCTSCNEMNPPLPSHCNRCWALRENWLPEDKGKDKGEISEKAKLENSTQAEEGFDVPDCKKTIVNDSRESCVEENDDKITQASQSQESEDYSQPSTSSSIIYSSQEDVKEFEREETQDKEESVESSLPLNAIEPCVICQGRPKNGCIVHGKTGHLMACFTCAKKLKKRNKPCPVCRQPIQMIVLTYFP
Assay: Inhibition of 6His-tagged MDM2 (1 to 118) interaction to FITC-tagged p53 (17 to 26) (unknown origin) after 30 mins by fluorescence polarization assay
Format: protein assay
Reported metric: IC50 (µM)

Some molecules with known IC50 results, for comparison:
# Record smiles, Unit tag, IC50
measured = [
    ("O=C(O)CCc1ccc(OCc2cccc(Cl)c2)c(-c2cc(-c3ccc(F)cc3)n(CCc3ccccc3)n2)c1", "µM", 47.8),
    ("CCOc1ccc(CC(=O)O)cc1-c1cc(-c2ccccc2OCC)n(CCc2ccccc2)n1", "µM", 102),
    ("CCOc1ccccc1-c1cc(-c2cc(CC(=O)O)ccc2OC)nn1Cc1ccccc1", "µM", 288),
    ("COc1ccc(CCC(=O)O)cc1-c1cc(-c2cccc(OC)c2OC)n(Cc2ccccc2)n1", "µM", 449),
    ("CCOc1ccccc1-c1cc(-c2cc(CC(=O)O)ccc2OC)nn1CCc1ccccc1", "µM", 339),
    ("O=C(O)Cc1ccc(OCc2ccccc2Cl)c(-c2cc(-c3ccc(F)cc3)n(Cc3ccccc3)n2)c1", "µM", 130),
]

(A) CCOc1ccccc1-c1cc(-c2ccc(C(=O)O)cc2)nn1Cc1ccccc1
(B) COc1ccc(CCC(=O)O)cc1-c1cc(-c2ccc(Cl)cc2)n(CCc2ccccc2)n1
(C) CCCCOc1ccc(CC(=O)O)cc1-c1cc(-c2cccc(OC)c2OC)n(Cc2ccccc2)n1
Exercise: Arrange these molecules by their IC50, starting with the largest number. I'd appreciate it if you listed the labels in the requested order.
Solution: A, C, B

----------
Assay: Kinetic solubility of the compound in PBS buffer
Format: physicochemical
Quick reference: Kinetic_solubility of the listed items.

# Record smiles, Observed measurement
rows = [
    ("O=C(O)CCc1ccc(OCc2cccc(Cl)c2)c(-c2cc(-c3ccc(F)cc3)n(CCc3ccccc3)n2)c1", "< 0.015 Ug/ml"),
    ("COc1ccc(CCC(=O)O)cc1-c1cc(-c2cccc(OC)c2OC)n(CCc2ccccc2)n1", "> 0.2 Ug/ml"),
    ("CCCOc1ccc(C(=O)O)cc1-c1cc(-c2cccc(OC)c2OC)n(Cc2ccccc2)n1", "> 0.2 Ug/ml"),
    ("CCOc1ccccc1-c1cc(-c2cc(CCC(=O)O)ccc2OC)nn1Cc1ccccc1", "> 0.2 Ug/ml"),
]

Now, please, on to the next compound.
Exercise: Kindly indicate its recorded Kinetic_solubility. Item: CCOc1ccccc1-c1cc(-c2cc(CC(=O)O)ccc2OCc2cccc(Cl)c2)nn1Cc1ccccc1
Solution: < 0.015 Ug/ml

----------
Experiment: Kinetic solubility of the compound in PBS buffer
Type: physicochemical
# Kinetic_solubility values compiled below

# Record smiles, Kinetic_solubility
rows = [
    ("O=C(O)CCc1ccc(OCc2cccc(Cl)c2)c(-c2cc(-c3ccc(F)cc3)n(Cc3ccccc3)n2)c1", "< 0.015 Ug/ml"),
    ("COc1cccc(-c2cc(-c3cc(CCC(=O)O)ccc3OCc3cccc(Cl)c3)nn2CCc2ccccc2)c1OC", "< 0.015 Ug/ml"),
]

Attention now turns to another entry.
Exercise: Please supply the value of reported Kinetic_solubility for the item CCOc1ccc(CCC(=O)O)cc1-c1cc(-c2cccc(OC)c2OC)n(Cc2ccccc2)n1
Solution: > 0.2 Ug/ml
